# Protocol text: Plasma clearance in Wistar rat
# Type: ADME, organism-based
Result type: clearance (mL/min/kg)
Numbers only; they are read as mL/min/kg.

Look up clearance for this compound: C[C@@H]1CC[C@@]2(OC1)O[C@H]1C[C@H]3[C@@H]4CC=C5C[C@@H](O[C@@H]6O[C@H](CO)[C@@H](O[C@@H]7O[C@@H](C)[C@H](O)[C@@H](O)[C@H]7O)[C@H](O)[C@H]6O[C@@H]6O[C@@H](C)[C@H](O)[C@@H](O)[C@H]6O)CC[C@]5(C)[C@H]4CC[C@]3(C)[C@H]1[C@@H]2C [DIOSCIN] 3.86

###

# Test system: OATP1B1
# Protocol text: Efflux ratio of permeability from basolateral to apical side to apical to basolateral side in MDCK2 cells expressing OATP1B1 (unknown origin) at 1 uM after 30 to 180 mins by LC-MS/MS analysis
# Type: ADME, cell-based, Canis lupus familiaris, MDCK-II
# Condition notes: dog, MDCK
Result type: efflux ratio at 1 µM
The answer should be a number; do not append a unit.

Look up efflux ratio at 1 µM for this compound: "C[C@]12CC[C@@H]3c4ccc(OS(=O)(=O)O)cc4CC[C@H]3[C@@H]1CCC2=O" 2.8
